# tested on: UniProt P23458
# Sequence (P23458 whole entry): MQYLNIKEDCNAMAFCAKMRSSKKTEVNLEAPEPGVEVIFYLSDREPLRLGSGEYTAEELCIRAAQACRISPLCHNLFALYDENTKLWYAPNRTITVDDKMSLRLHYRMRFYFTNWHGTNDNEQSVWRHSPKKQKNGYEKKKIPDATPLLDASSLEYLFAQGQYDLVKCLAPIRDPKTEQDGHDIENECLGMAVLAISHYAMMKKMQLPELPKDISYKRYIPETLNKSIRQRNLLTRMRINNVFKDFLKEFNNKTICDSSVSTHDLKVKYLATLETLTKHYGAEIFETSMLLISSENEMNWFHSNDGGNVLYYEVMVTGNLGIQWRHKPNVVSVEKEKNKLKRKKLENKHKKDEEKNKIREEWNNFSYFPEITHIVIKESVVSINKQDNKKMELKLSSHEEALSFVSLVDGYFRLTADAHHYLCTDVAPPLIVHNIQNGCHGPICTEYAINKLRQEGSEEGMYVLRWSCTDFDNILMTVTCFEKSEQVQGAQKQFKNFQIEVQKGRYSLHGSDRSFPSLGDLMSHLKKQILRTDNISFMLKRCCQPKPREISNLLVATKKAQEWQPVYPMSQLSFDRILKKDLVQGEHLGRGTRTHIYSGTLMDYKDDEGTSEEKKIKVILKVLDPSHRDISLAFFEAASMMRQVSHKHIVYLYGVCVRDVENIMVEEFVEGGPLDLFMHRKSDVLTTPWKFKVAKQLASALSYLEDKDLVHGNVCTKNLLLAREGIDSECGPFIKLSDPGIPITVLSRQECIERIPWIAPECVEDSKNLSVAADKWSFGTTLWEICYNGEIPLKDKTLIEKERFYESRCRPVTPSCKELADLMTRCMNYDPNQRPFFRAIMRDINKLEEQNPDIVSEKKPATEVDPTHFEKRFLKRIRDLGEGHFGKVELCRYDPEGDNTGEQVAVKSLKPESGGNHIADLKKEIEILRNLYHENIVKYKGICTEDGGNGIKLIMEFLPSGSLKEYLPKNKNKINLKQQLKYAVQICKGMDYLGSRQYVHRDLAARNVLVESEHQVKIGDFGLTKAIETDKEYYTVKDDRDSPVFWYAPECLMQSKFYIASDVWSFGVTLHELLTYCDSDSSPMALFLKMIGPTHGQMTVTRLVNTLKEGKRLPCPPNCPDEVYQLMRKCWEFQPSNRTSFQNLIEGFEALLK
Rule: t for ΔTm not less than 4 °C, f for anything less.

* C#Cc1cccc(Nc2ncnc3cc(OCCOC)c(OCCOC)cc23)c1 | f
* CN1CCc2[nH]c(=S)c(C#N)c(-c3cccs3)c2C1 | f
* CC(C)(C)c1nc2c3ccc(F)cc3c3c(=O)[nH]ccc3c2[nH]1 | t
* O=C1Nc2cc(Br)ccc2/C1=C1/Nc2ccccc2/C1=N\O | t
* C[C@@H](N)[C@H]1CC[C@H](C(=O)Nc2ccncc2)CC1 | f

---

# ΔTm per record follows
# tested on: Serine/threonine-protein kinase PAK 5 (Homo sapiens) (UniProt Q9P286)
# Sequence (Q9P286 whole entry, looked up): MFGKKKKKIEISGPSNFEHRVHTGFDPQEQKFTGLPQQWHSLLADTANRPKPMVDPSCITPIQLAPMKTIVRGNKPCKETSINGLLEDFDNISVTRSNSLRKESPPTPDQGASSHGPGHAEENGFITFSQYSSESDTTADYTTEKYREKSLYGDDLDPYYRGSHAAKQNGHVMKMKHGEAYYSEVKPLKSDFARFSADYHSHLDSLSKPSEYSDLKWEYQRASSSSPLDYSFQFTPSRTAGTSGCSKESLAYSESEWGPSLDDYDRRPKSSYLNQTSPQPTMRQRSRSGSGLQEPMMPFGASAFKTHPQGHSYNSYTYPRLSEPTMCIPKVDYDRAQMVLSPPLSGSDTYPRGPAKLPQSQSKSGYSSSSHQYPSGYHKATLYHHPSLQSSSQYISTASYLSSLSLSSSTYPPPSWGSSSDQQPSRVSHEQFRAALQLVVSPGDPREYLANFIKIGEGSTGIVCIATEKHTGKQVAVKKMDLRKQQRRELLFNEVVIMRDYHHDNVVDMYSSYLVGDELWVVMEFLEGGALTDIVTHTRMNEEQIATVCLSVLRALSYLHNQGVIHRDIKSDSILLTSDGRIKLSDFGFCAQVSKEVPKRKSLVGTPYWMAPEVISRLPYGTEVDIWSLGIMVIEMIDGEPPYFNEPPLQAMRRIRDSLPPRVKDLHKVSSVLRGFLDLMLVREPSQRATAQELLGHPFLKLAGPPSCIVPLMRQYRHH
readout type: ΔTm (°C)

• CC(C)[C@H](CO)Nc1nc(Nc2cc(N)cc(Cl)c2)c2ncn(C(C)C)c2n1 = 0.3
• Nc1nccc(-c2c(-c3ccc(F)cc3)ncn2C2CCNCC2)n1 = 0
• C[S+]([O-])c1ccc(CSc2nc(-c3ccc(F)cc3)c(-c3ccncc3)[nH]2)cc1 (stereo not given) = 0.4
• O=C1Nc2ccccc2/C1=C/c1cnc[nH]1 = 0.7
• Cc1[nH]c(/C=C2\C(=O)Nc3ccc(S(=O)(=O)N(C)c4cccc(Cl)c4)cc32)c(C)c1C(=O)N1CCN(C)CC1 = 0.9
• COc1cc2ncnc(Nc3cccc(Br)c3)c2cc1OC = 0.3
• O=C(O)c1cc(NCc2cc(O)ccc2O)ccc1O = -0.3
• O=C(O)c1cc(N(Cc2ccccc2O)Cc2cc(O)ccc2O)ccc1O = -0.5
• O=C1Cc2c([nH]c3ccc(Br)cc23)-c2ccccc2N1 = 3.5
• O=C1Nc2ccc(I)cc2/C1=C\c1cc(Br)c(O)c(Br)c1 = 1

All values here come from ChEMBL document CHEMBL1145498.
